# kon per record follows
- Test System: T1, His-tagged CEACAM1 (human, UniProt P13688 35-428)
- T1 construct: 45 kDa SPR analyte; also called CEACAM1-HIS; CEACAM1 analyte
- T1 sequence: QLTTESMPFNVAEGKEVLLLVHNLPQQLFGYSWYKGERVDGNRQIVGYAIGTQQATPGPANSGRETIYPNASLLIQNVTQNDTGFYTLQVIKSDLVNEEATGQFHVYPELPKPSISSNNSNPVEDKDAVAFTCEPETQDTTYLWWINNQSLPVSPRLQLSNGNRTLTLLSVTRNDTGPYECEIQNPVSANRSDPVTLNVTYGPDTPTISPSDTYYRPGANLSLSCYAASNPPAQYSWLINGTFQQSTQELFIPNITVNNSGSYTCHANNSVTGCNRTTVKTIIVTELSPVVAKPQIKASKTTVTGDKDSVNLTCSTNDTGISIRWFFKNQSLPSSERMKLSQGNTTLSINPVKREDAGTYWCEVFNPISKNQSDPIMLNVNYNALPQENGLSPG
- Procedure Details: SPR single-cycle, supernatant IgG captured

>  <Binder>
CP08A06/Vκ8 S29A (antibody, IgG4, V domains shown, IgG4 (S241P), kappa) VH: EVQLLESGGGLVQPGGSLRLSCAASGYSFSSHGMSWVRQAPGKGLEWVATISSGGTYTYYPDSVKGRFTISRDNSKNTLYLQMNSLKAEDTAMYYCARHDFDYDAAWFAYWGQGTLVTVSS VL: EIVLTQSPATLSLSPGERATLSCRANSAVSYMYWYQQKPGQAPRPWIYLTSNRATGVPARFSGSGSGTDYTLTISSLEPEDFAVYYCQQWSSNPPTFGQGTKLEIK

>  <Unit>
M⁻¹ s⁻¹

>  <kon>
170000

$$$$
>  <Binder>
VH1/CP08G02 (antibody, IgG4, V domains shown, IgG4 (S241P), kappa) VH: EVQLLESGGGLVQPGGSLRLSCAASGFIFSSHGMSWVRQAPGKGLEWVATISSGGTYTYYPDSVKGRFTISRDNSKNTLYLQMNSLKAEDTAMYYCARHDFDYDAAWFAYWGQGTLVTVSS VL: EIVLTQSPATLSLSPGERATLSCRANSAVSYMYWYQQKPGQAPRPWIYLTSNRATGVPARFSGSGSGTDYTLTISSLEPEDFAVYYCQQWTNNPPTFGQGTKLEIK

>  <Unit>
M⁻¹ s⁻¹

>  <kon>
23000

$$$$
>  <Binder>
CP08F07/Vκ8 S29A (antibody, IgG4, V domains shown, IgG4 (S241P), kappa) VH: EVQLLESGGGLVQPGGSLRLSCAASGFTFTDHAISWVRQAPGKGLEWVATISSGGTYTYYPDSVKGRFTISRDNSKNTLYLQMNSLKAEDTAMYYCARHDFDYDAAWFAYWGQGTLVTVSS VL: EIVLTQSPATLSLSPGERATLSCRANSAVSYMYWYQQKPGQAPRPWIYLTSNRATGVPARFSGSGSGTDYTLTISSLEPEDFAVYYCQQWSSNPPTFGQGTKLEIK

>  <Unit>
M⁻¹ s⁻¹

>  <kon>
170000

$$$$
>  <Binder>
CP08A03/Vκ8 S29A (antibody, IgG4, V domains shown, IgG4 (S241P), kappa) VH: EVQLLESGGGLVQPGGSLRLSCAASGFIFNNHAISWVRQAPGKGLEWVATISSGGTYTYYPDSVKGRFTISRDNSKNTLYLQMNSLKAEDTAMYYCARHDFDYDAAWFAYWGQGTLVTVSS VL: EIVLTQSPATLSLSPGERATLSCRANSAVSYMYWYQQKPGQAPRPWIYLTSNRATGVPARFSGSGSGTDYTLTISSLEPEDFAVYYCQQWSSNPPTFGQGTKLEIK

>  <Unit>
M⁻¹ s⁻¹

>  <kon>
93000

$$$$
>  <Binder>
CP08H01/Vκ8 S29A (antibody, IgG4, V domains shown, IgG4 (S241P), kappa) VH: EVQLLESGGGLVQPGGSLRLSCAASGFIFSSHGMSWVRQAPGKGLEWVATISSGGTYTYYPDSVKGRFTISRDNSKNTLYLQMNSLKAEDTAMYYCAKHPPDYFAAWFAYWGQGTLVTVSS VL: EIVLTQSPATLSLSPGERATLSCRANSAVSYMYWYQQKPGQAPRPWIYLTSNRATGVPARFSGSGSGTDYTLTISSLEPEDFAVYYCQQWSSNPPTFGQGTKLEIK

>  <Unit>
M⁻¹ s⁻¹

>  <kon>
210000

$$$$
>  <Binder>
CP08B03/Vκ8 S29A (antibody, IgG4, V domains shown, IgG4 (S241P), kappa) VH: EVQLLESGGGLVQPGGSLRLSCAASGFTFTAHAISWVRQAPGKGLEWVATISSGGTYTYYPDSVKGRFTISRDNSKNTLYLQMNSLKAEDTAMYYCARHDFDYDAAWFAYWGQGTLVTVSS VL: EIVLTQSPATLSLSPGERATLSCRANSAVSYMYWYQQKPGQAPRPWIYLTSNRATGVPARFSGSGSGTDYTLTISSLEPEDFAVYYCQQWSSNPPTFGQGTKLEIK

>  <Unit>
M⁻¹ s⁻¹

>  <kon>
200000

$$$$
>  <Binder>
CP09E05/Vκ8 S29A (antibody, IgG4, V domains shown, IgG4 (S241P), kappa) VH: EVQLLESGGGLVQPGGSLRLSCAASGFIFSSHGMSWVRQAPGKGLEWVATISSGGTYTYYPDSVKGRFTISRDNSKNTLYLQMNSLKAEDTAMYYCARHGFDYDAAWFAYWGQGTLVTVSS VL: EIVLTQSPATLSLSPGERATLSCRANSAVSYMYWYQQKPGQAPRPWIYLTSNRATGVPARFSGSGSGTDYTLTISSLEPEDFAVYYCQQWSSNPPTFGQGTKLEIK

>  <Unit>
M⁻¹ s⁻¹

>  <kon>
120000

$$$$
>  <Binder>
CP09E03/Vκ8 S29A (antibody, IgG4, V domains shown, IgG4 (S241P), kappa) VH: EVQLLESGGGLVQPGGSLRLSCAASGFTFSAHAISWVRQAPGKGLEWVATISSGGTYTYYPDSVKGRFTISRDNSKNTLYLQMNSLKAEDTAMYYCARHDFDYDAAWFAYWGQGTLVTVSS VL: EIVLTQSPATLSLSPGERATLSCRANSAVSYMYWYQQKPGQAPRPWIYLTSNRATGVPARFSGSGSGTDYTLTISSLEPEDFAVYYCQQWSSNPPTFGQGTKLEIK

>  <Unit>
M⁻¹ s⁻¹

>  <kon>
110000

$$$$
>  <Binder>
CP08C01/Vκ8 S29A (antibody, IgG4, V domains shown, IgG4 (S241P), kappa) VH: EVQLLESGGGLVQPGGSLRLSCAASGYSFSNHGMSWVRQAPGKGLEWVATISSGGTYTYYPDSVKGRFTISRDNSKNTLYLQMNSLKAEDTAMYYCARHDFDYDAAWFAYWGQGTLVTVSS VL: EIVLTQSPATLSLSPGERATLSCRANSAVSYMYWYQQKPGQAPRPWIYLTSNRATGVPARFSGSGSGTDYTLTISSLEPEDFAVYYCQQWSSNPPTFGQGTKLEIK

>  <Unit>
M⁻¹ s⁻¹

>  <kon>
82000

$$$$
>  <Binder>
VH1/CP08E05 (antibody, IgG4, V domains shown, IgG4 (S241P), kappa; also called Parent VH/CP08E05) VH: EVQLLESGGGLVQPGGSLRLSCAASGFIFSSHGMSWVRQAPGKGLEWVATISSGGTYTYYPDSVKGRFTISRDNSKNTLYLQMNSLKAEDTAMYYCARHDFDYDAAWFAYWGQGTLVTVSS VL: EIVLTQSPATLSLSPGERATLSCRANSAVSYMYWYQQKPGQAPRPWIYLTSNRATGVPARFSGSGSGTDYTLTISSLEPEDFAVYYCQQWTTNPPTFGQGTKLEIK

>  <Unit>
M⁻¹ s⁻¹

>  <kon>
240000

$$$$
